# system: T1, recombinant CD3D&E protein (human CD3-his tag) (human, UniProt P04234 22-105; P07766 23-126, limits assumed)
# T1 construct: Analyte in Biacore; also called CD3D&E-His; CD3d&ε-His
# T1 sequence (P04234 22-105 limits assumed, chain 1 of 2): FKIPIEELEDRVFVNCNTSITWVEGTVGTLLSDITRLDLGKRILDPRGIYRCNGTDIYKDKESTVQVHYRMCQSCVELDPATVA
# T1 sequence (P07766 23-126 limits assumed, chain 2 of 2): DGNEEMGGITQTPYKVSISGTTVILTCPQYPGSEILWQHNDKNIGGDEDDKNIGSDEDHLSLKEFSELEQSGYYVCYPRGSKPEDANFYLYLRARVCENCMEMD
# assay-details: SPR Biacore, Ab captured on Protein A;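 note: humanized antibodies on a Protein A chip, human CD3-his analyte flowed over in serial dilutions for 3 min, dissociation tracked 120–360 s on a Biacore T200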
Documented kon across a set of binders
Expressed in M⁻¹ s⁻¹, but write only the number.

{"binder": "155A9B1 chimeric mAb (antibody, V domains shown, Chimeric mAb) VH: QVQLKESGPGLVQPSQTLSLTCTVSGFSLTSYNVHWVRQPPGKGLEWMGRVRYNGDTSYNSALKSRLSISRDTSKNQAFLKMNSLQIDDTGTYYCTRGPYGGSSEPLFDYWGQGVMVTVSS VL: DIKMTQSPSFLSASVGDRVTINCKASQNINKYLNWFQQKLGEAPRLLIYTTNNLQTGIPSRFSGSGSGTDFTLTISSLQPEDVATYFCLQHNSGYTFGAGTKLELK", "unit-name": "M⁻¹ s⁻¹", "kon": 57200}

Note to self: kon recorded for Hu155A9B1-6 (antibody, V domains shown, humanized mAb) VH: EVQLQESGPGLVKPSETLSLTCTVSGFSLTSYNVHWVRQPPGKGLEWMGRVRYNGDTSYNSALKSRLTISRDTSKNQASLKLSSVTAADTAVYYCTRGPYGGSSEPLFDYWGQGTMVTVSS VL: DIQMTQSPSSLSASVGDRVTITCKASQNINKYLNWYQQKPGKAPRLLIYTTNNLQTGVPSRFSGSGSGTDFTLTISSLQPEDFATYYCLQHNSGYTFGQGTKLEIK was 95400

Input Hu153A6B1-4 (antibody, V domains shown, humanized mAb) VH: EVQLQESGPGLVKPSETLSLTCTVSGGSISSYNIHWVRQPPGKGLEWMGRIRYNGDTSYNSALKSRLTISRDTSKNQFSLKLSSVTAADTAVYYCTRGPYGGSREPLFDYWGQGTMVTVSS VL: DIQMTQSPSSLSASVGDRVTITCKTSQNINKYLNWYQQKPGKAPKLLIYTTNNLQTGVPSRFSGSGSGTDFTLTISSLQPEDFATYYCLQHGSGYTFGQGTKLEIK . Output kon: 334000
